Test system: OVCAR-8 ovarian
Experiment: NCI-60 one-dose screen, 48 h (100 = growth as untreated, 0 = no growth, -100 = all killed)
Conditions: 10 µM
The panel holds about 83,000 compounds, 20% with a hit somewhere; the sample as a whole holds those more often.
Provide the reported growth of each item.
Entry rule: numbers only, all in %.

## Input Kindly indicate its recorded growth. Item: CC(=O)n1c(-c2ccc(Cl)c(Cl)c2)cn(-c2ccc(Cl)cc2)c1=O
## Output 20.8

## Input Give growth for CCN(CC)CCOc1nc2cc(OC)c(OC)cc2c2c1-c1ccc(OC)cc1C2=O
## Output 52.9

## Input Give reported growth value for COc1ccc2c(c1)N(CCO)C1=C(C(=O)OC1)C2c1ccccc1 (stereo unspecified)
## Output 29.6

## Input Give the measured growth for Nc1nc(N=Nc2ccc(O)cc2)cc(=O)[nH]1
## Output 97.2

## Input Quick one: give measured growth for Nc1nc(Nc2ccccc2)n[nH]1
## Output 98.1

## Input Assign growth to the following record: C#Cc1ccc(-n2c(/C=C/c3ccc4ccccc4c3)nc3ncccc3c2=O)cc1
## Output 38.5

## Input Respond only with growth recorded for Nc1nccc(Nc2ccccc2)n1
## Output 100

## Input Item CCN1CCCC1CNC(=O)c1ncc(-c2ccc(C(F)(F)F)cc2)c(NC2CCCCCC2)n1 (stereo unspecified) : provide growth
## Output 74

## Input Note growth for the molecule shown: COc1ccc(S(=O)(=O)NCCCNc2nccc(-c3c(-c4ccc(F)cc4)nc4sccn34)n2)cc1
## Output 41.9

## Input Determine its reported growth: N=C(N)c1ccc(-c2ccc(-c3ccco3)o2)cc1
## Output 76.2

## Input Name the recorded growth of the molecule listed here: Nc1ncnc2[nH]c(=O)[nH]c12
## Output 93.3
